Known Critical temperature of a selection of molecules
# REPORTED CONDITIONS: Liquid; Visual observation in an unstirred cell
± gives the expanded uncertainty stated by the source.
MEASUREMENT LABEL: Critical temperature

>>> observed_result("C1CCCCC1")
"554.1 ± 2.4 K"
>>> observed_result("CCCCCC")
"507.9 ± 2.4 K"
>>> observed_result("CCCCCCC")
"540 ± 2.4 K"
>>> observed_result("COC(C)(C)C")
"497 ± 2.4 K"
>>> observed_result("CCO")
"514.2 ± 2.4 K"
>>> observed_result("CCCO")
"537 ± 2.4 K"
>>> observed_result("CO")
"512.3 ± 2.4 K"

---

# REPORTED CONDITIONS: Liquid; Direct measurement
Known Critical pressure of a selection of compounds
MEASUREMENT LABEL: Critical pressure (kPa)

>>> observed_result("CCCCCCC")
2761
>>> observed_result("CCO")
6135
>>> observed_result("C1CCCCC1")
4110
>>> observed_result("CCCCCC")
3030
>>> observed_result("CO")
8128
>>> observed_result("COC(C)(C)C")
3448
>>> observed_result("CCCO")
5172
